- System: dithranol-induced mouse ear inflammation (edema)
- PROCEDURE_TEXT: Dithranol-induced mouse ear inflammation test
- Format: in vivo
- STATED_CONDITIONS: Swiss male mice, 10 per group; 20 μL solution painted on left ear at Time 0 and +16 h; dithranol 30 μg in 20 μL acetone at +0.5 h; 6 mm ear disks weighed at +24 h
REPORTED_ENDPOINT: % Inhibit. (extent of the edema as percentage of inhibition)
Could you give the number and then its unit, please?

The recorded % Inhibit. (extent of the edema as percentage of inhibition) for CC(C)(CO)[C@@H](O)C(=O)NCCCO is 7%

response.value for CC(C)=CCC[C@](C)(O)C1CC=C(C)CC1 (stereo partly shown) (field: % Inhibit. (extent of the edema as percentage of inhibition)) = 6%

% Inhibit. (extent of the edema as percentage of inhibition) recorded for this compound, O=C(O)CCCC[C@@H]1SC[C@@H]2NC(=O)N[C@@H]21 , is 6%

response.value for C[N+](C)(C)C[C@H](O)CC(=O)[O-] (field: % Inhibit. (extent of the edema as percentage of inhibition)) = 9%
